Biological target: T1, citrate synthase, mitochondrial (Sus scrofa, UniProt P00889)
T1 chain: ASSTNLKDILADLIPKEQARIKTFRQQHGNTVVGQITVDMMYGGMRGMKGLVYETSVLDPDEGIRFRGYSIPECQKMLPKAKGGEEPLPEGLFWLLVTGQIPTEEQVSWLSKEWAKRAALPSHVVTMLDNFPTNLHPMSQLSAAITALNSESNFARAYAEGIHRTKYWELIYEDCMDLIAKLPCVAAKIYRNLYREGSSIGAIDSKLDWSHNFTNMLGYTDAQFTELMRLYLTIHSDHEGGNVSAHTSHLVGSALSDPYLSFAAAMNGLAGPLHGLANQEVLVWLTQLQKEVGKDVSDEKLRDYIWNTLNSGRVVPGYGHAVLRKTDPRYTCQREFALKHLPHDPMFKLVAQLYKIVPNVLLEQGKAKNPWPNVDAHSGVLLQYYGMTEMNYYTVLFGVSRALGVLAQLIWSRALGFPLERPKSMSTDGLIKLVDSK
Assay: MST
observable: Kd (nM)

binder="malate dehydrogenase, mitochondrial (protein, 10 mM alpha-ketoglutarate) AKVAVLGASGGIGQPLSLLLKNSPLVSRLTLYDIAHTPGVAADLSHIETRATVKGYLGPEQLPDCLKGCDVVVIPAGVPRKPGMTRDDLFNTNATIVATLTAACAQHCPDAMICIISNPVNSTIPITAEVFKKHGVYNPNKIFGVTTLDIVRANAFVAELKGLDPARVSVPVIGGHAGKTIIPLISQCTPKVDFPQDQLSTLTGRIQEAGTEVVKAKAGAGSATLSMAYAGARFVFSLVDAMNGKEGVVECSFVKSQETDCPYFSTPLLLGKKGIEKNLGIGKISPFEEKMIAEAIPELKASIKKGEEFVKNMK" observable=Kd numeric_value=1140
binder="malate dehydrogenase, mitochondrial (protein, 10 mM ADP) AKVAVLGASGGIGQPLSLLLKNSPLVSRLTLYDIAHTPGVAADLSHIETRATVKGYLGPEQLPDCLKGCDVVVIPAGVPRKPGMTRDDLFNTNATIVATLTAACAQHCPDAMICIISNPVNSTIPITAEVFKKHGVYNPNKIFGVTTLDIVRANAFVAELKGLDPARVSVPVIGGHAGKTIIPLISQCTPKVDFPQDQLSTLTGRIQEAGTEVVKAKAGAGSATLSMAYAGARFVFSLVDAMNGKEGVVECSFVKSQETDCPYFSTPLLLGKKGIEKNLGIGKISPFEEKMIAEAIPELKASIKKGEEFVKNMK" observable=Kd numeric_value=2240
binder="malate dehydrogenase, mitochondrial (protein, 10 mM oxaloacetate and acetyl-CoA) AKVAVLGASGGIGQPLSLLLKNSPLVSRLTLYDIAHTPGVAADLSHIETRATVKGYLGPEQLPDCLKGCDVVVIPAGVPRKPGMTRDDLFNTNATIVATLTAACAQHCPDAMICIISNPVNSTIPITAEVFKKHGVYNPNKIFGVTTLDIVRANAFVAELKGLDPARVSVPVIGGHAGKTIIPLISQCTPKVDFPQDQLSTLTGRIQEAGTEVVKAKAGAGSATLSMAYAGARFVFSLVDAMNGKEGVVECSFVKSQETDCPYFSTPLLLGKKGIEKNLGIGKISPFEEKMIAEAIPELKASIKKGEEFVKNMK" observable=Kd numeric_value=520
binder="malate dehydrogenase, mitochondrial (protein, 10 mM NADH) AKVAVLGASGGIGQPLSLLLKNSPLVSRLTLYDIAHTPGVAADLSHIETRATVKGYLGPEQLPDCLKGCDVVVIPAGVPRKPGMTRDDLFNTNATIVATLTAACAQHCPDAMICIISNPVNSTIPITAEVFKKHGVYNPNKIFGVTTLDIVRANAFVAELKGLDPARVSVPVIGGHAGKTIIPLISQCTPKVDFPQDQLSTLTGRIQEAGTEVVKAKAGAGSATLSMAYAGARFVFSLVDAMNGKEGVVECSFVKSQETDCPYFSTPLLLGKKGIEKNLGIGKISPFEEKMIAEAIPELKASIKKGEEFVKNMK" observable=Kd numeric_value=7500
binder="malate dehydrogenase, mitochondrial (protein, 10 mM AMP) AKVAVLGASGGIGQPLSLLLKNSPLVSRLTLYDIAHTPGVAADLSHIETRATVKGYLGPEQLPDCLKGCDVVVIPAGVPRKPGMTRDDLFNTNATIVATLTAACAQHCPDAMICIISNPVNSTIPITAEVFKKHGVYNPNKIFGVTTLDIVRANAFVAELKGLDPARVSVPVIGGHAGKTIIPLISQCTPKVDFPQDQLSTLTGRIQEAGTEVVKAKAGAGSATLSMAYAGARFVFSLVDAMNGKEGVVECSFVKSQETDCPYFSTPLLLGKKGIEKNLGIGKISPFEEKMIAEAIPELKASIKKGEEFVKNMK" observable=Kd numeric_value=3100
binder="malate dehydrogenase, mitochondrial (protein, 5 mM ATP) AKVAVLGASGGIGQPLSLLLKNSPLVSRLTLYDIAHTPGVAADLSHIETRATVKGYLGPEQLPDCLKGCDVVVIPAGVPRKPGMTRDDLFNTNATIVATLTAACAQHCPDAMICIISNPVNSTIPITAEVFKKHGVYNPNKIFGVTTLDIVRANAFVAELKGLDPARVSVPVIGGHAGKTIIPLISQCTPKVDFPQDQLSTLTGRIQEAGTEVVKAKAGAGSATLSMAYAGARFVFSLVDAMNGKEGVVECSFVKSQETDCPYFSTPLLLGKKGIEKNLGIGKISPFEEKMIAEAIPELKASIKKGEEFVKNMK" observable=Kd numeric_value=770
